# Test system: KM12
# test_protocol: NCI tumour cell line growth inhibition, 48 h
Activity calls are given as the source filed them. Cut-off read from the data, not from the text of the source: active = GI50 up to about 1.1 µM and inactive = higher.
# output must be one of True for active, False for inactive

Use these answered entries as a reference point.
compound	tested_system	answer_label
O=c1c2cc(Br)ccc2nc(-c2ccccc2)n1NCC1(O)OCC(O)C(O)C1O (centres undefined)	KM12	False
CN(C)c1n/c(=N/Cc2ccccc2)ss1	KM12	False

Exercise: For `NN` , what call appears in the results of this test?
Key: False

Exercise: Same thing, different compound: `CCOC(=O)/C(C#N)=C(O)/C(=C\c1ccc(Br)cc1)NC(=O)c1ccccc1`
Key: False

Exercise: Same thing, different compound: `CC(C)NC(=O)OCc1c(COC(=O)NC(C)C)n(C)c2c1ccc1ccsc12`
Key: False

Exercise: Same thing, different compound: `O=C(/C=C/C(=O)N1CCCC1)N1CCCC1`
Key: False

Exercise: Same thing, different compound: `COc1ccc(Nc2nc3c(N)cc(C(F)(F)F)cc3nc2-c2ccccc2)cc1OC`
Key: False

Exercise: Same thing, different compound: NCCCCNCCCNC(=O)CNC(=O)CC(O)C(N)CCCC(NC(=O)C(CN)NC(=O)C(O)CNC(=O)CC(N)c1ccc(O)cc1)C(=O)O (centres undefined)
Key: False

Exercise: Same thing, different compound: `O=[N+]([O-])c1ccc(Cc2nc3cc4ccccc4cc3[nH]2)cc1C(F)(F)F`
Key: False

Exercise: Same thing, different compound: `CC(=O)O[C@H]1C(=O)[C@@]2(C)[C@H]([C@H](OC(=O)C3CCCCC3)[C@]3(O)C[C@H](OC(=O)[C@H](O)[C@@H](NC(=O)C4CCCCC4)C4CCCCC4)C(C)=C1C3(C)C)[C@]1(OC(C)=O)CO[C@@H]1C[C@@H]2O`
Key: True

* * *

Quick list: GI50 per entry.
# System: SN12C
# test_protocol: NCI tumour cell line growth inhibition, 48 h
Active and inactive are the calls of the source. No stated cut-off is given here; in the data, active = GI50 up to about 1.1 µM and inactive = higher.

Exercise: GI50 for COC(=O)C1Cc2ccc(O)c(O)c2CN1 (stereo not drawn) ?
Key: 16.4 µM (inactive)

Exercise: Same thing, different compound: `CC[n+]1[b-](C(C)(C)C)n(/N=C/C(C)(C)C)[b-](C(C)(C)C)[n+]1CC`
Key: > 100 µM (inactive)

Exercise: Same thing, different compound: O=[N+]([O-])c1ccc(NC2OCC(O)C(O)C2O)cc1 (stereo not drawn)
Key: > 100 µM (inactive)

* * *

# Test system: SF-539
# test_protocol: NCI tumour cell line growth inhibition, 48 h
The source made the active and inactive calls. No stated cut-off is given here; in the data, active = GI50 up to about 1.1 µM and inactive = higher.
Quick list: GI50 per entry.

> print(dat)
                                   compound               result
1  C[Si](C)(C)C(Sc1ccccc1)(Sc1ccccc1)Sc1ccccc1  > 100 µM (inactive)
2  CCOC(=O)C1=C(C)NC(=O)NC1c1coc2cc(C)cc(C)c2c1=O (stereo unspecified)   75.9 µM (inactive)
3                  CSc1ccc(NC(=S)NN(C)C)cc1   > 10 µM (inactive)
4  O=C(/C=C/c1ccccc1)CCN1CCN(CCC(=O)/C=C/c2ccccc2)CC1   14.9 µM (inactive)

Exercise: GI50 for N=C1OC(c2c[nH]c3ccc(OCc4ccccc4)cc23)C(O)=C1O (stereo unspecified) ?
Key: > 100 µM (inactive)

Exercise: Same thing, different compound: `O=C(O)c1ccccc1Sc1ccccc1[N+](=O)[O-]`
Key: > 100 µM (inactive)

* * *

# Test system: SNB-75
# test_protocol: NCI tumour cell line growth inhibition, 48 h
Calls of active or inactive are those of the source. No stated cut-off is given here; in the data, active = GI50 up to about 1.1 µM and inactive = higher.
# output must be one of active, inactive

Use these answered entries as a reference point.
molecule	tested_system	answer_label
Cn1cc(NC(=O)Nc2cc(C(=O)Nc3cc(C(=O)Nc4cc(S(=O)(=O)O)c5cc(S(=O)(=O)O)cc(S(=O)(=O)O)c5c4)n(C)c3)n(C)c2)cc1C(=O)Nc1cc(C(=O)Nc2cc(S(=O)(=O)O)c3cc(S(=O)(=O)O)cc(S(=O)(=O)O)c3c2)n(C)c1	SNB-75	inactive
COc1cc(OC)c2nc(C)c(CCCl)c(Cl)c2c1	SNB-75	inactive
COc1ccc2[nH]c3c4c(cc(-c5ccccc5)c3c2c1)C(=O)N(c1ccccc1)C4=O	SNB-75	inactive
COC1=C(C(=O)OC(C)(C)C)C23CCCCC2(C(C(=O)OC(C)(C)C)=C(OC)C3C(=O)OC(C)(C)C)C1C(=O)OC(C)(C)C (stereo not given)	SNB-75	inactive
O=[N+]([O-])c1ccc(/C(=N/c2ccccc2)SS/C(=N\c2ccccc2)c2ccc([N+](=O)[O-])o2)o1	SNB-75	inactive

Exercise: For `O=C(CCc1cc(-c2ccc(F)cc2)n[nH]1)N(Cc1ccccc1)Cc1ccccc1` , what call appears in the results of this test?
Key: inactive

Exercise: Same thing, different molecule: `COc1cc(/C=C2/C[C@H]3[C@@H]4CC=C5C[C@@H](OC(C)=O)CC[C@]5(C)[C@H]4CC[C@]3(C)NC2=O)cc(OC)c1OC`
Key: inactive

Exercise: Same thing, different molecule: `Cc1n[nH]c(=O)n1/N=C/c1c[nH]c2ccccc12`
Key: inactive

Exercise: Same thing, different molecule: `Nc1nc(N)c2cc(-c3ccccc3)cnc2n1`
Key: inactive

Exercise: Same thing, different molecule: `CCOC(=O)/C(C(=O)Nc1ccc(F)cc1)=C(/N)N1CCOCC1`
Key: inactive

* * *

# System: UACC-62
# test_protocol: NCI tumour cell line growth inhibition, 48 h
Active and inactive are the calls of the source. Rule as the data show it: active = GI50 up to about 1.1 µM and inactive = higher.
Quick list: GI50 per entry.

molecule	tested_system	result
CC1(C)OC2OC(/C=C/[N+](=O)[O-])C3OC(C)(C)OC3C2O1 (centres undefined)	UACC-62	15.1 µM (inactive)
COc1cc(C2SCC(=O)N2NC(=O)c2ccc(NC(C)=O)cc2)cc(OC)c1OC (centres undefined)	UACC-62	> 100 µM (inactive)
Cc1ccc(-c2cc(-c3ccccc3)c(C#N)c(=O)n2C2OC(CO)C(O)C(O)C2O)cc1 (centres undefined)	UACC-62	> 100 µM (inactive)
C#CCN1CCN(C(=S)N/N=C(\C)c2ccccn2)CC1	UACC-62	0.0252 µM (active)

Exercise: GI50 for CCc1cn(C2CC(CO)C(CO)S2)c(=O)[nH]c1=O (centres undefined) ?
Key: > 100 µM (inactive)

Exercise: Same thing, different molecule: `Cc1ccc(C)c(NC(=O)CCc2n[nH]c(=S)o2)c1`
Key: > 100 µM (inactive)

Exercise: Same thing, different molecule: COc1ccc(C(C#N)NC23CC4CC(CC(C4)C2)C3)cc1OC (centres undefined)
Key: > 100 µM (inactive)

Exercise: Same thing, different molecule: N#Cc1ccc(C2ON=C(c3ccccc3)N2C23CC4CC(CC(C4)C2)C3)cc1 (centres undefined)
Key: > 10 µM (inactive)

Exercise: Same thing, different molecule: COC1CC(OC2C(C)OC(OC3C(C)OC(OC4C(C)OC(O[C@H]5CC[C@@]6(C)C(=CC[C@]7(O)[C@@H]6C[C@@H](OC(=O)/C=C(\C)C(C)C)[C@@]6(C)[C@]7(O)CC[C@@]6(O)C(C)=O)C5)CC4OC)CC3OC)CC2OC)OC(C)C1O (some centres undefined)
Key: > 12.5 µM (inactive)

* * *

# System: SNB-75
# test_protocol: NCI tumour cell line growth inhibition, 48 h
Activity calls are given as the source filed them. Rule as the data show it: active = GI50 up to about 1.1 µM and inactive = higher.
Quick list: GI50 per entry.

Exercise: GI50 for COc1ccc(C(C)Nc2cc(OC)c(OC)c(OC)c2)cc1 (stereo unspecified) ?
Key: 5.75 µM (inactive)

Exercise: Same thing, different compound: `S=c1[nH]c2ccc(Br)cc2c(=S)s1`
Key: 28.1 µM (inactive)

Exercise: Same thing, different compound: `CC(=O)Oc1ccc(-c2c(OC(C)=O)c(OC(C)=O)c(-c3ccc(OC(C)=O)c(OC(C)=O)c3)c(OC(C)=O)c2OC(C)=O)cc1`
Key: 13.6 µM (inactive)

Exercise: Same thing, different compound: COC(=O)C1Cc2ccc(O)c(O)c2CN1 (stereo unspecified)
Key: 19.5 µM (inactive)

Exercise: Same thing, different compound: CCOC(=O)C1N(S(=O)(=O)c2ccc(C)cc2)CCC12C(c1ccc(OC)c(OC)c1)=Nc1ccccc12 (stereo unspecified)
Key: 35.5 µM (inactive)

Exercise: Same thing, different compound: C[C@@H](CC(=O)O)OC1OC(COC(=O)C(C)(C)C)C(OC(=O)C(C)(C)C)C(OC(=O)C(C)(C)C)C1OC(=O)C(C)(C)C (stereo partly specified)
Key: 72.8 µM (inactive)

Exercise: Same thing, different compound: `O=C(Oc1ccc(Cl)cc1[N+](=O)[O-])c1ccccc1`
Key: 90.8 µM (inactive)

Exercise: Same thing, different compound: CC(C)CCC[C@@H](C)C1CCC2[C@@H]3CCC4CC(CCC=C(c5cc(Cl)c(OC(=O)c6ccccc6)c(C(=O)O)c5)c5cc(Cl)c(OC(=O)c6ccccc6)c(C(=O)O)c5)CC[C@]4(C)C3CC[C@@]21C (stereo partly specified)
Key: > 100 µM (inactive)
